Cited source: patent US11076595B2

# Test system: Echinochloa crus-galli
# assay-notes: Test Example 12: herbicidal effect test by treatment during growing period in paddy field
# Type: in vivo
# condition-summary: 120 g/10a; treatment seven days after sowing in flooded paddy pot; assessed 14 days after treatment
readout-name: Weed suppression rate (%) Echinochloa crus-galli

smiles-input: CC(C)N(C(=O)n1cnn(S(=O)(=O)C2CC2)c1=O)c1ccc(F)cc1Cl
assay-target: Echinochloa crus-galli
recorded-value: 100
//
smiles-input: CC(C)N(C(=O)n1cnn(S(=O)(=O)N(C)C)c1=O)c1ccc(Cl)cn1
assay-target: Echinochloa crus-galli
recorded-value: 100
//
smiles-input: Cc1ccc(S(=O)(=O)n2ncn(C(=O)N(c3ccccc3F)C(C)C)c2=O)cc1
assay-target: Echinochloa crus-galli
recorded-value: 90
//
smiles-input: CC(C)N(C(=O)n1cnn(S(=O)(=O)c2cccc(F)c2)c1=O)c1cccc(F)c1F
assay-target: Echinochloa crus-galli
recorded-value: 100
//
smiles-input: CC(C)N(C(=O)n1cnn(S(=O)(=O)C2CC2)c1=O)c1ccc(Cl)cn1
assay-target: Echinochloa crus-galli
recorded-value: 100
//
smiles-input: CC(C)N(C(=O)n1cnn(S(=O)(=O)c2ccc(F)cc2)c1=O)c1c(F)c(F)cc(F)c1F
assay-target: Echinochloa crus-galli
recorded-value: 100
//
smiles-input: CC(C)N(C(=O)n1cnn(S(=O)(=O)c2ccc(F)cc2)c1=O)c1ccccc1F
assay-target: Echinochloa crus-galli
recorded-value: 90
//
smiles-input: CC(C)N(C(=O)n1cnn(S(=O)(=O)c2cccs2)c1=O)c1ccc(C(F)(F)F)cc1Cl
assay-target: Echinochloa crus-galli
recorded-value: 90

###

# Test system: Echinochloa crus-galli
# assay-notes: Test Example 12: herbicidal effect test by treatment during growing period in paddy field
# Type: in vivo
# condition-summary: 120 g/10a; treatment seven days after sowing in flooded paddy pot; assessed 14 days after treatment
readout-name: Weed suppression rate (%) Echinochloa crus-galli

compound: COc1ccc(S(=O)(=O)n2ncn(C(=O)N(c3ccc(F)c(F)c3F)C(C)C)c2=O)cc1 [Compound 11-1153]
recorded-value: 100
//
compound: Cc1ccc(S(=O)(=O)n2ncn(C(=O)N(C)c3ccc(F)cc3F)c2=O)cc1 [Compound 11-1131]
recorded-value: 100
//
compound: CC(C)N(C(=O)n1cnn(S(=O)(=O)c2ccc(C(C)(C)C)cc2)c1=O)c1c(F)cc(F)cc1F [Compound 11-686]
recorded-value: 90
//
compound: Cc1ccc(S(=O)(=O)n2ncn(C(=O)N(c3c(F)cccc3F)C(C)C)c2=O)cc1 [Compound 11-639]
recorded-value: 100
//
compound: CC(C)N(C(=O)n1cnn(S(=O)(=O)c2ccc(Br)cc2)c1=O)c1ccc(F)cc1F [Compound 11-616]
recorded-value: 50
//
compound: CC(C)N(C(=O)n1cnn(S(=O)(=O)c2ccccc2C(F)(F)F)c1=O)c1ccc(F)cc1F [Compound 11-711]
recorded-value: 60
//
compound: Cc1cc(C)c(S(=O)(=O)n2ncn(C(=O)N(c3ccccc3)C(C)C)c2=O)c(C)c1 [Compound 11-852]
recorded-value: 80
//
compound: Cc1cc(C)c(S(=O)(=O)n2ncn(C(=O)N(c3cccc(F)c3)C(C)C)c2=O)c(C)c1 [Compound 11-854]
recorded-value: 80
//
compound: CC(C)N(C(=O)n1cnn(S(=O)(=O)c2ccccc2Cl)c1=O)c1ccccc1 [Compound 11-501]
recorded-value: 100
//
compound: Cc1cc(C)c(S(=O)(=O)n2ncn(C(=O)N(c3cccc(F)c3F)C(C)C)c2=O)c(C)c1 [Compound 11-862]
recorded-value: 100
//
compound: Cc1cc(F)ccc1N(C(=O)n1cnn(S(=O)(=O)c2cccc(Cl)c2)c1=O)C(C)C [Compound 11-563]
recorded-value: 100
//
compound: CC(C)N(C(=O)n1cnn(S(=O)(=O)c2cccc(Cl)c2)c1=O)c1ccc(F)cc1F [Compound 11-550]
recorded-value: 70
//
compound: CC(C)N(C(=O)n1cnn(S(=O)(=O)c2ccccc2Cl)c1=O)c1cccc(F)c1F [Compound 11-511]
recorded-value: 100
//
compound: CCS(=O)(=O)n1ncn(C(=O)N(c2cccc(F)c2F)C(C)C)c1=O [Compound 11-1148]
recorded-value: 100
//
compound: CC(C)N(C(=O)n1cnn(S(=O)(=O)c2ccccc2F)c1=O)c1ccc(Br)cc1Cl [Compound 11-413]
recorded-value: 60
